Tested on: TC71 (human ESFT cell line)
assay_procedure: IC50 activity in TC71 cells
Type: cell-based
condition: TC71 cells
measurement_label: IC50 (µM)

Solved entries (count: 3):
COc1ccc(C(=O)/C=C2\C(=O)Nc3c(Cl)ccc(Cl)c32)c(OC)c1 : 2.32
COc1ccc(C(=O)CC2(O)C(=O)Nc3c(Cl)ccc(Cl)c32)cc1 (racemic) : 1.43
COc1ccc(C(=O)/C=C2\C(=O)Nc3c(Cl)ccc(Cl)c32)c(OC)c1OC : 1.6

(P) COc1ccc(C(=O)/C=C2/C(=O)Nc3c(Cl)ccc(Cl)c32)cc1
(Q) CSc1ccc(C(=O)CC2(O)C(=O)Nc3c(Cl)ccc(Cl)c32)cc1 (stereo not drawn)
(R) CN(C)c1ccc(C(=O)CC2(O)C(=O)Nc3c(Cl)ccc(Cl)c32)cc1 (stereo not drawn)
Prompt line: Ordering: ascending IC50. Sort the labels as requested; that list is your answer.
Response line: R, Q, P

From: patent US9511050B2
